Values compiled from patent US4895842A.

target: human plasma kallikrein (Homo sapiens); experiment: Anti-plasma kallikrein activity: inhibition of S-2302 decomposition; type: biochemical
Sequence (P03952 391-638 limits assumed): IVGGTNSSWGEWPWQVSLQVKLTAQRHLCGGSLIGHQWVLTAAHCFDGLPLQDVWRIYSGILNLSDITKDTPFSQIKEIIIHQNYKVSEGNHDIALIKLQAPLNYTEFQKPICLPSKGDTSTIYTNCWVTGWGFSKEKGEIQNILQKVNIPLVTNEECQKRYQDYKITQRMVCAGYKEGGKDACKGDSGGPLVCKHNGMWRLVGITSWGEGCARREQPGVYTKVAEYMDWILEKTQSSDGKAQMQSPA
Sequence (P03952 20-390 partner limits assumed): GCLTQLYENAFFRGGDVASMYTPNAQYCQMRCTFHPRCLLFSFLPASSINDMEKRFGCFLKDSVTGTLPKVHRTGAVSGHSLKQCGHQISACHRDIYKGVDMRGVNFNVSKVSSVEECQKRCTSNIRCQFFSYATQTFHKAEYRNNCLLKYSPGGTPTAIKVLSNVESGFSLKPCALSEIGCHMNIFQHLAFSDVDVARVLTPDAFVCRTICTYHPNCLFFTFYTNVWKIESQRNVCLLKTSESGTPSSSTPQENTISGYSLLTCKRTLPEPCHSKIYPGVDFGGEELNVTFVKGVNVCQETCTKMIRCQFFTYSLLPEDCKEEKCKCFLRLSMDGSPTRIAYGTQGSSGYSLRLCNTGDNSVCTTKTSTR
measurement-kind: IC50

Query: IC50; subject: CC(=O)NC(Cc1ccc([N+](=O)[O-])cc1)C(=O)Nc1ccc([N+](=O)[O-])cc1 (stereo not shown) [Table 3 Compound No. 4, reference compound]
Result: > 100 µM

---

Target: human plasmin (Homo sapiens, UniProt P00747)
Sequence (P00747 581-810 limits assumed): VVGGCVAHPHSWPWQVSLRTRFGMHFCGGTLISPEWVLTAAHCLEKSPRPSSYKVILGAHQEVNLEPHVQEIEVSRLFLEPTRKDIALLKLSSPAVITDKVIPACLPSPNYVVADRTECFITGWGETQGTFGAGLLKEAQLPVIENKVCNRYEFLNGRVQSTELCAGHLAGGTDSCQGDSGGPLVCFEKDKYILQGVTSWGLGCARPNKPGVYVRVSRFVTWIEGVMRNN
Sequence (P00747 97-580 partner limits assumed): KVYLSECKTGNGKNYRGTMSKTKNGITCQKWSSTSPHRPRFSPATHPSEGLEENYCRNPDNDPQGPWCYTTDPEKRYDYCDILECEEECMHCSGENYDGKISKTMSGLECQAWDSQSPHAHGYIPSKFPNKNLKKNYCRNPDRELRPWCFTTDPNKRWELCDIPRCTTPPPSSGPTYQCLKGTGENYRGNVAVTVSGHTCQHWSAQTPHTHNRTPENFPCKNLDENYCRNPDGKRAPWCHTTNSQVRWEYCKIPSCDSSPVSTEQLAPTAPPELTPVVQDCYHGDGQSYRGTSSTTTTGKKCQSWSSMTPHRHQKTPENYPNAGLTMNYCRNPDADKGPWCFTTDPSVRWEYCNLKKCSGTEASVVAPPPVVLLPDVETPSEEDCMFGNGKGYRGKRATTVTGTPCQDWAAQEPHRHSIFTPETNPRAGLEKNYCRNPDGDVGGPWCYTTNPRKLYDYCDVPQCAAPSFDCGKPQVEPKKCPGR
Assay: biochemical
Details: read-out: Plasmin S-2251 (I50)
Description: An inhibitor sample is dissolved in a 0.05M Tris-hydrochloric acid buffer solution (pH=7.4) to make the total volume of 400 μl. […] Then, 50 μl of a 0.2 casein unit/ml human plasmin is added and the mixture is incubated at a temperature of 37° C. for 4 minutes. […] Thus, the concentration I50 (μmol) of the inhibitor sample, at which the absorbance is one half (i.e., 1/2) of that obtained in the absence of the inhibitor, is determined.
Where a name gives a salt, the structure may show the parent alone.
measurement-kind: pIC50
// scale note: pIC50 = -log10(conc_M); give the bare number

NCc1ccc(C(=O)N[C@@H](Cc2ccc(OCc3ccccc3)cc2)C(=O)NCc2ccncc2)cc1 [Compound No. 96, dihydrochloride] ... 4.54
CC(=O)c1ccc(NC(=O)[C@H](Cc2ccc(OCc3cc(Cl)ccc3Cl)cc2)NC(=O)[C@H]2CC[C@H](CN)CC2)cc1 ... 6.31
NC[C@H]1CC[C@H](C(=O)N[C@@H](Cc2ccc(Oc3cc(Cl)ccc3[N+](=O)[O-])cc2)C(=O)Nc2ccncc2)CC1 [Compound No. 137, dihydrochloride] ... 6.05
CC(=O)c1ccc(NC(=O)[C@H](Cc2ccc(OCc3cccc(C(F)(F)F)c3)cc2)NC(=O)[C@H]2CC[C@H](CN)CC2)cc1 ... 5.92
Cc1ccc(NC(=O)[C@H](Cc2ccc(OCc3ccccc3)cc2)NC(=O)c2ccc(CN)cc2)cc1 ... 5.25

Next item in the queue.
Query: pIC50; subject: CC(=O)c1ccc(NC(=O)[C@H](Cc2ccc(OCc3ccc(Cl)cc3)cc2)NC(=O)[C@H]2CC[C@H](CN)CC2)cc1
Result: 6.05

---

molecular target: human urokinase (Homo sapiens, UniProt P00749); test: biochemical; conditions: Table 2; S-2444 substrate, pH 8.8, 37° C.; read-out: Urokinase S-2444 (I50)
Structures can show the parent of a compound that is named as a salt.
The following molecules are shown together with reported log10 IC50 values.
Heads up: the numbers are on a log10 scale; they represent IC50 in µM.

Known log10 IC50 results, listed for orientation:
COc1ccc(C[C@H](NC(=O)[C@H]2CC[C@H](CN)CC2)C(=O)Nc2ccc(C(C)=O)cc2)cc1 [Compound No. 6] ... 1.62
CC(=O)c1ccc(NC(=O)[C@H](Cc2ccc(OCc3cc(Cl)ccc3Cl)cc2)NC(=O)[C@H]2CC[C@H](CN)CC2)cc1 [compound 125] ... 1.67
NC[C@H]1CC[C@H](C(=O)N[C@@H](Cc2ccc(OCc3cccc(Cl)c3)cc2)C(=O)Nc2ccnc(Cl)c2)CC1 [compound 128] ... 1.91

Query: log10 IC50 of NC[C@H]1CC[C@H](C(=O)N[C@@H](Cc2ccc(OCc3ccc(Cl)c(Cl)c3)cc2)C(=O)Nc2ccncc2)CC1 [compound 127] on human urokinase (Homo sapiens, UniProt P00749)?
Result: 1.30

Query: log10 IC50 of CC(=O)c1ccc(NC(=O)[C@H](Cc2ccc(OCC(=O)c3ccccc3)cc2)NC(=O)[C@H]2CC[C@H](CN)CC2)cc1 [compound 30] on human urokinase (Homo sapiens, UniProt P00749)?
Result: 1.90

Query: log10 IC50 of NC[C@H]1CC[C@H](C(=O)NC(Cc2ccc(N)cc2)C(=O)Nc2ccc(C(=O)c3ccccc3)cc2)CC1 (stereo partly shown) [compound 33] on human urokinase (Homo sapiens, UniProt P00749)?
Result: 1.04

Query: log10 IC50 of NC[C@H]1CC[C@H](C(=O)N[C@@H](Cc2ccc(OCc3ccccc3)cc2)C(=O)NC2CC3CCC2C3)CC1 (stereo partly shown) [compound 64] on human urokinase (Homo sapiens, UniProt P00749)?
Result: 1.81

Query: log10 IC50 of CC(=O)c1ccc(NC(=O)[C@H](Cc2ccc(OCc3ccc(Cl)c(Cl)c3)cc2)NC(=O)[C@H]2CC[C@H](CN)CC2)cc1 [compound 45] on human urokinase (Homo sapiens, UniProt P00749)?
Result: 1.85

Query: log10 IC50 of NC[C@H]1CC[C@H](C(=O)N[C@@H](Cc2ccccc2)C(=O)Nc2ccc(C(=O)c3ccccc3)cc2)CC1 [Compound No. 1] on human urokinase (Homo sapiens, UniProt P00749)?
Result: 1.04

Query: log10 IC50 of NC[C@H]1CC[C@H](C(=O)N[C@@H](Cc2ccc(OCc3ccccc3)cc2)C(=O)Nc2ccc(S(N)(=O)=O)cc2)CC1 [Compound No. 47, hydrochloride] on human urokinase (Homo sapiens, UniProt P00749)?
Result: 2.11

Query: log10 IC50 of CC(=O)c1ccc(NC(=O)[C@H](Cc2ccc(OCc3c(Cl)cccc3Cl)cc2)NC(=O)[C@H]2CC[C@H](CN)CC2)cc1 [compound 20] on human urokinase (Homo sapiens, UniProt P00749)?
Result: 2.08

Query: log10 IC50 of CC(=O)c1ccc(NC(=O)[C@H](Cc2ccc(OCc3cccc(C(F)(F)F)c3)cc2)NC(=O)[C@H]2CC[C@H](CN)CC2)cc1 [compound 55] on human urokinase (Homo sapiens, UniProt P00749)?
Result: 1.76

Query: log10 IC50 of CC(=O)c1ccc(NC(=O)[C@H](Cc2ccc(OC(C)C)cc2)NC(=O)[C@H]2CC[C@H](CN)CC2)cc1 [compound 14] on human urokinase (Homo sapiens, UniProt P00749)?
Result: 1.90

Query: log10 IC50 of CC(=O)c1ccc(NC(=O)[C@H](Cc2ccc(OCc3ccc(Br)cc3)cc2)NC(=O)[C@H]2CC[C@H](CN)CC2)cc1 [compound 17] on human urokinase (Homo sapiens, UniProt P00749)?
Result: 1.36

Query: log10 IC50 of NC[C@H]1CC[C@H](C(=O)N[C@@H](Cc2ccc(OCc3ccccc3)cc2)C(=O)Nc2ccc(C(=O)c3ccccc3)cc2)CC1 [compound 19] on human urokinase (Homo sapiens, UniProt P00749)?
Result: 1.28

Query: log10 IC50 of CSc1ccc(NC(=O)[C@H](Cc2ccc(OCc3ccccc3)cc2)NC(=O)[C@H]2CC[C@H](CN)CC2)cc1 [compound 29] on human urokinase (Homo sapiens, UniProt P00749)?
Result: 2.52

---

target: human urokinase (Homo sapiens, UniProt P00749); assay: biochemical; conditions: Table 2; S-2444 substrate, pH 8.8, 37° C.; read-out: Urokinase S-2444 (I50)
Counter-ions that a name gives are not always drawn.
measurement-kind: pIC50
// scale note: pIC50 = -log10(conc_M); give the bare number

Known pIC50 results, listed for orientation:
NC[C@H]1CC[C@H](C(=O)N[C@@H](Cc2ccc(OCc3ccccc3)cc2)C(=O)Nc2ccnc(Cl)c2)CC1 [Compound No. 59, hydrochloride] ... 4.40
C=CCOc1ccc(C[C@H](NC(=O)[C@H]2CC[C@H](CN)CC2)C(=O)Nc2ccc(C(C)=O)cc2)cc1 ... 4.35
NC[C@H]1CC[C@H](C(=O)N[C@@H](Cc2ccc(OCc3cccc(Cl)c3)cc2)C(=O)Nc2cccc(Cl)c2)CC1 ... 3.46
CC(=O)c1ccc(NC(=O)[C@H](Cc2ccc(OC(=O)OCc3ccccc3Br)cc2)NC(=O)[C@H]2CC[C@H](CN)CC2)cc1 ... 4.37
CC(=O)c1ccc(NC(=O)[C@H](Cc2ccc(Oc3ccc([N+](=O)[O-])cn3)cc2)NC(=O)[C@H]2CC[C@H](CN)CC2)cc1 [Compound No. 121, hydrochloride] ... 4.72

Query: pIC50; subject: CC(=O)c1ccc(NC(=O)[C@H](Cc2ccc(OCc3ccc(F)cc3)cc2)NC(=O)[C@H]2CC[C@H](CN)CC2)cc1
Result: 4.96

Query: pIC50; subject: CC(=O)c1ccc(NC(=O)[C@H](Cc2ccc(OCc3cccc([N+](=O)[O-])c3)cc2)NC(=O)[C@H]2CC[C@H](CN)CC2)cc1
Result: 4.46

Query: pIC50; subject: CCOC(=O)C1CCCC(NC(=O)[C@H](Cc2ccc(OCc3cccc(Cl)c3)cc2)NC(=O)[C@H]2CC[C@H](CN)CC2)C1 (some centres unmarked)
Result: 4.09

Query: pIC50; subject: CCOC(=O)c1cccc(NC(=O)[C@H](Cc2ccc(OCc3ccccc3)cc2)NC(=O)[C@H]2CC[C@H](CN)CC2)c1
Result: 4.19

Query: pIC50; subject: CC(=O)c1ccc(NC(=O)[C@H](Cc2ccc([N+](=O)[O-])cc2)NC(=O)[C@H]2CC[C@H](CN)CC2)cc1 [compound 130, hydrochloride]
Result: 4.47
